Target: SIRT1 (Homo sapiens, UniProt Q96EB6)
Sequence (Q96EB6 whole entry): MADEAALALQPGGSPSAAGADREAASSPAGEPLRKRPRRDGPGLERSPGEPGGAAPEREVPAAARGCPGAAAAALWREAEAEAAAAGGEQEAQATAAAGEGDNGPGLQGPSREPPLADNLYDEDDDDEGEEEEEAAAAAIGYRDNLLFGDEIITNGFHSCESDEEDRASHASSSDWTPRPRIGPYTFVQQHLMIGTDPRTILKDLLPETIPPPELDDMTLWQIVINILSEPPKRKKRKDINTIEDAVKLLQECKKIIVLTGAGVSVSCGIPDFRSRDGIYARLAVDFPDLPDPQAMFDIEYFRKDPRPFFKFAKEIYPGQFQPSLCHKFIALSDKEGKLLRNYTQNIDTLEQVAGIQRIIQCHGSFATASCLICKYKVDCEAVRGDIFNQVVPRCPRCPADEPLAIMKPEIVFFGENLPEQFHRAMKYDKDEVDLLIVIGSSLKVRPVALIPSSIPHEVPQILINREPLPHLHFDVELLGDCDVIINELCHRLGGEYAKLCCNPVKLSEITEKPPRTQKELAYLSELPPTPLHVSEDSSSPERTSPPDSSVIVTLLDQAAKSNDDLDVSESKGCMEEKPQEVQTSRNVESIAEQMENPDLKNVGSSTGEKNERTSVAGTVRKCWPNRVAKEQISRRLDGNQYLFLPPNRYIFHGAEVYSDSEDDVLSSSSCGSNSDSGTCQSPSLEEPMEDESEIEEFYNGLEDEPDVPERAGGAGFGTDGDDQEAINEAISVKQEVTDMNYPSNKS
Assay: Mass spectrometry based SIRT1 deacetylation (activation) assay
Type: biochemical
Conditions: 25 min, 0.5 μM peptide substrate, 120 μM βNAD+, 10 nM SIRT1, 25 min at 25° C., read-out: % Fold Act. (percent maximum fold activation)
measure: Emax

Solved cases below.
O=C1CN(c2cc(C(=O)Nc3ccccc3-c3nncs3)nc(-c3ccccc3)n2)CCN1 | ≥ 300%
CN(C)CCNc1cc(C(=O)Nc2ccccc2C(=O)Nc2cccc(Cl)c2)nc(-c2ccccc2)n1 | ≥ 300%
CN(C)CCNc1cc(C(=O)Nc2ccccc2C(=O)N2CCCC2)nc(-c2ccccc2)n1 | ≥ 300%
CC(=O)c1ccccc1NC(=O)c1cc(NC2CCNCC2)nc(-c2ccccc2)n1 | ≥ 300%
CN(C)CCNc1cc(C(=O)Nc2ccccc2)nc(-c2ccccc2)n1 | 150 to 300%
CN(C)CCNc1cc(C(=O)Nc2ccccc2-c2nnc(C3CCCC3)s2)nc(-c2ccccc2)n1 | 150 to 300%
CN(C)CCNc1cc(C(=O)Nc2ccccc2-c2ccccn2)nc(-c2ccccc2)n1 | ≥ 300%
CCCCc1nnc(-c2ccccc2NC(=O)c2cc(N(CC)CCN(C)C)nc(-c3ccccc3)n2)s1 | 150 to 300%

## Input Report Emax, nothing else, for this compound: CCCc1nnc(-c2ccccc2NC(=O)c2cc(N(CC)CCN(C)C)nc(-c3ccccc3)n2)s1
## Output ≥ 300%

## Input Report Emax, nothing else, for this compound: CCN(CCN(C)C)c1cc(C(=O)Nc2ccccc2-c2nnc(C3CCOC3)s2)nc(-c2ccccc2)n1 (centres unmarked)
## Output ≥ 300%

## Input Report Emax, nothing else, for this compound: CCN(CCN(C)C)c1cc(C(=O)Nc2ccccc2-c2cnc(-c3ccccc3)[nH]2)nc(-c2ccccc2)n1
## Output ≥ 300%

## Input Report Emax, nothing else, for this compound: CC(O)c1ccccc1NC(=O)c1cc(NCCN(C)C)nc(-c2ccccc2)n1 (centres unmarked)
## Output 150 to 300%
